Attribution: patent US11203610B2

- test.system: WT STING (Homo sapiens, UniProt Q86WV6, H232R)
- protocol.notes: Differential Scanning Fluorimetry with WT STING
- Assay type: binding
- Parameters: truncated human WT STING or AQ STING (amino acid residues 140-343); 8xHis (N, cleaved yes); SUMO (N, cleaved yes); made in house; host or cells: E. coli Rosetta-gami B (DE3)
- test.context: thermal shift vs STING apoprotein; 150 μM CDN; 0.1 mg/ml truncated human WT STING; SYPRO Orange; read-out: DSF ΔTm (° C.) WT STING
- Sequence (Q86WV6 140-343 H232R): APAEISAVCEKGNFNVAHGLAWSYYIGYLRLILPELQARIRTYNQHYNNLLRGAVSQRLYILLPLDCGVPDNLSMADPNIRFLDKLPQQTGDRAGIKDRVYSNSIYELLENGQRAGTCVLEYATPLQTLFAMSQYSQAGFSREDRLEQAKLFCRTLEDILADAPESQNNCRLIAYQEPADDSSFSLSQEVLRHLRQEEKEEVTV
endpoint.name: ΔTm at 150 µM (°C)

molecule	ΔTm at 150 µM (°C)
Nc1ncnc2c1ncn2[C@@H]1O[C@@H]2OCP(=O)(O)O[C@@H]3[C@H](O)[C@@H](COP(=O)(O)O[C@H]2[C@H]1O)O[C@H]3n1cnc2c(=O)[nH]cnc21 [Compound 37]	8.5
C#Cc1cn([C@@H]2O[C@@H]3COP(=O)(O)O[C@@H]4[C@H](O)[C@@H](OCP(=O)(O)O[C@H]3[C@H]2O)O[C@H]4n2cnc3c(=O)[nH]c(N)nc32)c2ncnc(N)c12 [Compound 53]	6.6
Nc1nc2c(ncn2[C@@H]2O[C@@H]3COP(=O)(O)O[C@@H]4[C@@H](OCP(=O)(O)O[C@@H]2C3)O[C@@H](n2cnc3c(N)ncnc32)[C@@H]4O)c(=O)[nH]1 [Compound 38]	8.2
Nc1nc2c(ncn2[C@@H]2O[C@@H]3OCP(=O)(O)O[C@H]4[C@H](O)[C@H](n5cnc6c(N)nc(F)nc65)O[C@@H]4COP(=O)(O)O[C@@H]2[C@@H]3O)c(=O)[nH]1 [Compound 52]	13.9

[1] NC(=O)c1ncn([C@@H]2O[C@@H]3COP(=O)(O)O[C@@H]4[C@H](O)[C@@H](OCP(=O)(O)O[C@H]3[C@H]2O)O[C@H]4n2cnc3c(=O)[nH]c(N)nc32)c1N [Compound 58]
[2] Nc1nc2c(ncn2[C@@H]2O[C@@H]3OCP(=O)(O)O[C@H]4[C@@H](F)[C@H](n5cnc6c(N)ncnc65)O[C@@H]4COP(=O)(O)O[C@@H]2[C@@H]3O)c(=O)[nH]1 [Compound 46]
Lowest ΔTm at 150 µM? choose 1 or 2 Please indicate the selected item by its label.
1

* * *

- test.system: WT STING (Homo sapiens, UniProt Q86WV6, H232R)
- protocol.notes: Differential Scanning Fluorimetry with WT STING
- Type: binding
- Parameters: truncated human WT STING or AQ STING (amino acid residues 140-343); 8xHis (N, cleaved yes); SUMO (N, cleaved yes); made in house; host or cells: E. coli Rosetta-gami B (DE3)
- test.context: thermal shift vs STING apoprotein; 150 μM CDN; 0.1 mg/ml truncated human WT STING; SYPRO Orange; read-out: DSF ΔTm (° C.) WT STING
endpoint.name: ΔTm at 150 µM (°C)

Answered examples (2):
smiles.record	test.system	u	ΔTm at 150 µM
Nc1nc(N)c2ncn([C@@H]3O[C@@H]4COP(=O)(O)O[C@@H]5[C@H](O)[C@@H](OCP(=O)(O)O[C@H]4[C@H]3O)O[C@H]5n3cnc4c(=O)[nH]c(N)nc43)c2n1	WT STING (Homo sapiens, UniProt Q86WV6, H232R)	°C	11.9
Nc1nc2c(ncn2[C@@H]2O[C@@H]3OCP(=O)(O)O[C@H]4[C@@H](O)[C@H](n5cnc6c(N)ncnc65)O[C@@H]4COP(=O)(O)O[C@@H]2[C@@H]3O)c(=O)[nH]1	WT STING (Homo sapiens, UniProt Q86WV6, H232R)	°C	8

[1] Nc1ncnc2c1ncn2[C@@H]1O[C@@H]2OCP(=O)(O)O[C@@H]3[C@H](O)[C@@H](OCP(=O)(O)O[C@H]2[C@H]1O)O[C@H]3n1cnc2c(N)ncnc21
[2] Nc1nc2c(nnn2[C@@H]2O[C@@H]3OCP(=O)(O)O[C@@H]4[C@@H](OCP(=O)(O)O[C@@H]2[C@@H]3O)O[C@@H](n2cnc3c(N)ncnc32)[C@@H]4O)c(=O)[nH]1
[3] Nc1nc2c(ncn2[C@@H]2O[C@@H]3OCP(=O)(O)O[C@@H]4[C@@H](OCP(=O)(O)O[C@@H]2[C@@H]3O)O[C@@H](n2cnc3c(N)ncnc32)[C@@H]4O)c(=O)[nH]1
[4] CNc1ncnc2c1ncn2[C@@H]1O[C@@H]2COP(=O)(O)O[C@@H]3[C@H](O)[C@@H](OCP(=O)(O)O[C@H]2[C@H]1O)O[C@H]3n1cnc2c(=O)[nH]c(N)nc21
// sort entries: ΔTm at 150 µM, high to low # answer = labels listed in requested order
2, 4, 3, 1

* * *

- test.system: WT STING (Homo sapiens, UniProt Q86WV6, H232R)
- protocol.notes: Digitonin assay using 293T wtSTING-FL reporter cells
- Assay type: cell-based
- test.context: 293T wtSTING-FL cells; 30 minutes in Digitonin buffer, then 5 hours; ISRE firefly luciferase reporter; 8-point dose-response curve; read-out: Digitonin assay EC50 (μmol · l^−1) WT STING
- Sequence (Q86WV6 whole entry H232R): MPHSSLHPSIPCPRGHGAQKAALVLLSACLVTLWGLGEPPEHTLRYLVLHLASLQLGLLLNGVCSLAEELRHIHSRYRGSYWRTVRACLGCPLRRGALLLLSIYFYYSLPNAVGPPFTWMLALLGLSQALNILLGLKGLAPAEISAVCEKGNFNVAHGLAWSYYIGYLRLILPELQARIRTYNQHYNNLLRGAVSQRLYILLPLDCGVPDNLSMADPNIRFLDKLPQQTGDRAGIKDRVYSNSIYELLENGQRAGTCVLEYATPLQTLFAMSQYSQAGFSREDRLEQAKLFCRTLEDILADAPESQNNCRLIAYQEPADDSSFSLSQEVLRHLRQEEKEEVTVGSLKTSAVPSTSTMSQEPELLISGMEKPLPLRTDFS
endpoint.name: EC50 (µM)

Answered examples (2):
compound	u	val
Nc1nc(N)c2ncn([C@@H]3O[C@@H]4COP(=O)(O)O[C@@H]5[C@H](O)[C@@H](OCP(=O)(O)O[C@H]4[C@H]3O)O[C@H]5n3cnc4c(=O)[nH]c(N)nc43)c2n1	µM	0.02
Nc1nc2c(ncn2[C@@H]2O[C@@H]3OCP(=O)(O)O[C@H]4C[C@H](n5cnc6c(N)ncnc65)O[C@@H]4COP(=O)(O)O[C@@H]2[C@@H]3O)c(=O)[nH]1	µM	0.01

[A] Nc1nc2c(ncn2[C@@H]2O[C@@H]3OCP(=O)(O)O[C@H]4[C@@H](F)[C@H](n5cnc6c(N)ncnc65)O[C@@H]4COP(=O)(O)O[C@@H]2[C@@H]3O)c(=O)[nH]1
[B] Nc1nc2c(ccn2[C@@H]2O[C@@H]3COP(=O)(O)O[C@@H]4[C@@H](OCP(=O)(O)O[C@@H]2[C@@H]3O)O[C@@H](n2cnc3c(N)ncnc32)[C@@H]4O)c(=O)[nH]1
[C] NC(=O)c1ncn([C@@H]2O[C@@H]3COP(=O)(O)O[C@@H]4[C@H](O)[C@@H](OCP(=O)(O)O[C@H]3[C@H]2O)O[C@H]4n2cnc3c(=O)[nH]c(N)nc32)c1N
[D] Nc1nc2c(ncn2[C@@H]2O[C@@H]3COP(=O)(S)O[C@@H]4[C@@H](OCP(=O)(O)O[C@@H]2[C@@H]3O)O[C@@H](n2cnc3c(N)ncnc32)[C@@H]4O)c(=O)[nH]1 (stereo partly shown)
[E] Nc1nc2c(nnn2[C@@H]2O[C@@H]3OCP(=O)(O)O[C@H]4[C@@H](O)[C@H](n5cnc6c(N)ncnc65)O[C@@H]4COP(=O)(O)O[C@@H]2[C@@H]3O)c(=O)[nH]1
// sort entries: EC50, high to low # answer = labels listed in requested order
B, C, D, E, A

* * *

- test.system: WT STING (Homo sapiens, UniProt Q86WV6, H232R)
- protocol.notes: Differential Scanning Fluorimetry with WT STING
- Assay type: binding
- Set-up: truncated human WT STING or AQ STING (amino acid residues 140-343); 8xHis (N, cleaved yes); SUMO (N, cleaved yes); made in house; host or cells: E. coli Rosetta-gami B (DE3)
- test.context: thermal shift vs STING apoprotein; 150 μM CDN; 0.1 mg/ml truncated human WT STING; SYPRO Orange; read-out: DSF ΔTm (° C.) WT STING
endpoint.name: ΔTm at 150 µM (°C)

compound	ΔTm at 150 µM / °C
Nc1nc2c(ncn2[C@@H]2O[C@@H]3OCP(=O)(O)O[C@H]4[C@H](O)[C@H](n5cnc6c(N)ncnc65)O[C@@H]4COP(=O)(O)OC2C3O)c(=O)[nH]1 (stereo partly drawn)	18.7

[A] Nc1nc2c(ncn2[C@@H]2O[C@@H]3COP(=O)(O)O[C@@H]4[C@@H](OCP(=O)(O)O[C@@H]2[C@@H]3O)O[C@@H](n2cnc3c(N)ncnc32)[C@@H]4O)c(=O)[nH]1
[B] Nc1nc2c(nnn2[C@@H]2O[C@@H]3OCP(=O)(O)O[C@H]4[C@H](O)[C@H](n5cnc6c(N)ncnc65)O[C@@H]4COP(=O)(O)O[C@@H]2[C@@H]3O)c(=O)[nH]1
Lowest ΔTm at 150 µM? choose A or B Please indicate the selected item by its label.
A
(A: 10.8 °C, B: 16 °C)

* * *

- test.system: WT STING (Homo sapiens, UniProt Q86WV6, H232R)
- protocol.notes: Digitonin assay using 293T wtSTING-FL reporter cells
- test.context: 293T wtSTING-FL cells; 30 minutes in Digitonin buffer, then 5 hours; ISRE firefly luciferase reporter; 8-point dose-response curve; read-out: Digitonin assay EC50 (μmol · l^−1) WT STING
endpoint.name: EC50 (nM)

molecule	val
CSc1ncnc2c1ncn2[C@@H]1O[C@@H]2COP(=O)(O)O[C@@H]3[C@H](O)[C@@H](OCP(=O)(O)O[C@H]2[C@H]1O)O[C@H]3n1cnc2c(=O)[nH]c(N)nc21	10

[a] Nc1nc2c(ncn2[C@@H]2O[C@@H]3OCP(=O)(O)O[C@H]4[C@H](O)[C@H](n5cnc6c(N)ncnc65)O[C@@H]4COP(=O)(O)OC2C3O)c(=O)[nH]1 (stereo partly drawn)
[b] Nc1nc2c(ncn2[C@@H]2O[C@@H]3COP(=O)(O)O[C@@H]4[C@@H](OCP(=O)(O)O[C@@H]2[C@@H]3O)O[C@@H](n2cnc3c(N)ncnc32)[C@@H]4O)c(=O)[nH]1
Lowest EC50? choose a or b Please indicate the selected item by its label.
a
